Measured hERG current change (%, negative = inhibition) at 10uM values are reported for all entries that follow.
Molecular target: human ether-à-go-go-related gene (hERG) potassium channel (human)
Assay: primary screen, population patch clamp on CHO cells stably expressing hERG; higher = less effect of the substance
Hit rate of the full screen: of about 310,000 compounds, about 14,000 (4.5%) showed an effect of 50% or more. Effects have a minus sign here. For the sample, strong results were picked, then their nearest neighbours and some compounds at random.
The reply should contain only the number, in %.

- compound: "C=CCc1ccccc1OCC(O)CN1CCOCC1 (stereo not shown)"
  unit_abbreviation: "%"
  reported_result: 13.1
- compound: "Cl.OC(COc1ccccc1)CN1CCN(Cc2ccc3c(c2)OCO3)CC1 (stereo not shown)"
  unit_abbreviation: "%"
  reported_result: -60.5
- compound: "Cc1c(C(O)CN2CCN(Cc3ccc4c(c3)OCO4)CC2)c2ccccc2n1C (stereo not shown)"
  unit_abbreviation: "%"
  reported_result: -75.6
- compound: "Cc1cc(C)cc(OCC(O)CN2CCN(Cc3ccc4c(c3)OCO4)CC2)c1.Cl (stereo not shown)"
  unit_abbreviation: "%"
  reported_result: -76

Request: Given the compound CC(C)(C)NC(=O)CCN(/N=C/c1ccccc1F)C1=NS(=O)(=O)c2ccccc21 , what is its reported hERG current change (%, negative = inhibition) at 10uM?
Result: 15.7

Request: Given the compound CC(C)OCC(O)CN1CCN(CC(O)COc2ccc3c(c2)OCO3)CC1 (stereo not shown) , what is its reported hERG current change (%, negative = inhibition) at 10uM?
Result: -33.3

Request: Given the compound Cc1c(C(=O)C(=O)N2CCN(Cc3ccc4c(c3)OCO4)CC2)c2ccccc2n1C , what is its reported hERG current change (%, negative = inhibition) at 10uM?
Result: -8.7

###

Molecular target: human ether-à-go-go-related gene (hERG) potassium channel (human, UniProt Q12809)
Sequence (Q12809 whole entry, looked up): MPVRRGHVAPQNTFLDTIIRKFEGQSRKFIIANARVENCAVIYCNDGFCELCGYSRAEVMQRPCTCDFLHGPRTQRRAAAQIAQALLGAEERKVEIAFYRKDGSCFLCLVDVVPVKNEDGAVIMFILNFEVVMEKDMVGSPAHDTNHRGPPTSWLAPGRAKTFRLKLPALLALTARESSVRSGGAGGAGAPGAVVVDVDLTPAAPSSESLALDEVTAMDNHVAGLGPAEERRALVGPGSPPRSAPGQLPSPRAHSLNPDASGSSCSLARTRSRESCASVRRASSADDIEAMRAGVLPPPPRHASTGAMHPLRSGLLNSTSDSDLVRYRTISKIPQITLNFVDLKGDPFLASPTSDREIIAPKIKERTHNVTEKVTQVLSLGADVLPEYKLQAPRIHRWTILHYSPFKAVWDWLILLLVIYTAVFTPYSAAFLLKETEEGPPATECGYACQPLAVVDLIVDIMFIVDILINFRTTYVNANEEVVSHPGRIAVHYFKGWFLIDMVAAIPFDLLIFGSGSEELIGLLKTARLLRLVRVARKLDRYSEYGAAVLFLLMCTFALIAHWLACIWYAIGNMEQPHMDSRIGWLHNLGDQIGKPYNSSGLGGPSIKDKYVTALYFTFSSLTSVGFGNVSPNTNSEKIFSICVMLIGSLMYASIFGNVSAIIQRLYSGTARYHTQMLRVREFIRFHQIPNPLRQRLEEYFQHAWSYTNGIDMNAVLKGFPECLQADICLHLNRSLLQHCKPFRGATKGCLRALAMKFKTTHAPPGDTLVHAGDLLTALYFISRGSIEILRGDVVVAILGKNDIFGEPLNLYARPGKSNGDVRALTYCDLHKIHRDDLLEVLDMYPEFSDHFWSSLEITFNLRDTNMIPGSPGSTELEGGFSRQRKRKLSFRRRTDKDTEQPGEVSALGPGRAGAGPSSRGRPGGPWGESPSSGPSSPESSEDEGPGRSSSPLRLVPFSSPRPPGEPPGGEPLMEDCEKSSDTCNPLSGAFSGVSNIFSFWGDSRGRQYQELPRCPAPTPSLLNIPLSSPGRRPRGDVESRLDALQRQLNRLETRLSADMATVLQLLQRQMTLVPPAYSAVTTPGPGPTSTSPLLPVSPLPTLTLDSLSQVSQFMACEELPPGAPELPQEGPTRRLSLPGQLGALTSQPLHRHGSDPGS
Experiment: primary screen, population patch clamp on CHO cells stably expressing hERG; higher = less effect of the substance
The whole screen tested about 310,000 compounds, of which about 14,000 (4.5%) showed an effect of 50% or more. The effect is printed as a negative number. This excerpt belongs to a sample that is enriched for strong results.
quantity_name: hERG current change (%, negative = inhibition) at 10uM
Please answer using a numeric value trailed by its unit.

Request: Given the molecule C/C(=N/OCC(=O)NCCCCCCNC(=O)CO/N=C(/C)c1cccs1)c1cccs1 , what is its reported hERG current change (%, negative = inhibition) at 10uM?
Result: -20.8%

###

Biological target: human ether-à-go-go-related gene (hERG) potassium channel (human, UniProt Q12809);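 also: peak tail current of the secondary pulse compared with the same well before compound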
Experiment: primary screen, population patch clamp on CHO cells stably expressing hERG; higher = less effect of the substance
About 14,000 (4.5%) of roughly 310,000 compounds showed an effect of 50% or more. Effects have a minus sign here. Shown is part of a subset that was picked to be rich in strong results.
Binary classification by hERG current change (%, negative = inhibition) at 10uM, with -10% as an inclusive lower bound for class 1; all other cases are class 0.

Some solved cases for reference:
- molecule: "Cn1c(SCC(=O)NNC(=O)c2ccccc2O)nnc1-c1ccccc1"
  discrete_label: "class 1"
- molecule: "O=CN1CCCN(Cc2nc(Cc3ccccc3F)no2)CC1"
  discrete_label: "class 1"
- molecule: "COc1ccc(Cc2c(O)[nH]c(=S)[nH]c2=O)cc1"
  discrete_label: "class 1"
- molecule: "CCn1c(SCC(=O)Nc2cc(C)nn2-c2ccccc2)nnc1-c1cccs1"
  discrete_label: "class 0"
- molecule: "CCc1noc(C)c1C(=O)N1CCOCC1"
  discrete_label: "class 1"

Request: Item Cc1cc(C)cc(N2CCCC2=O)c1 with hERG current change (%, negative = inhibition) at 10uM of -10% or above?
Result: class 1

###

Target: human ether-à-go-go-related gene (hERG) potassium channel (human);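 also: peak tail current of the secondary pulse compared with the same well before compound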
Experiment: primary screen, population patch clamp on CHO cells stably expressing hERG; higher = less effect of the substance
Procedure: Briefly, Chinese hamster ovary (CHO) cells stably expressing the hERG channel were dislodged from tissue culture flasks and dispensed into PPC plates. […] During the recording, background leak currents were estimated by a 100 ms step to -80 mV from an initial holding potential of -70 mV and subtracted from the subsequent current measurement. The campaign was conducted in two phases using slight differences in recording protocol. […]
Among all 310,000 compounds or so, about 14,000 (4.5%) showed an effect of 50% or more. The effect is printed as a negative number. The list comes from a sample in which strong results are over-represented; it also holds close analogues and randomly drawn compounds.
quantity_name: hERG current change (%, negative = inhibition) at 10uM
Please answer using a numeric value trailed by its unit.

These recorded examples may help you get a feel for the data.
- molecule: "Cc1ccc(Cn2cc(/C=C/C(=O)O)c(-c3ccccc3)n2)cc1"
  reported_result: "6.77%"
- molecule: "CC1=C(C(=O)OCc2ccccc2)C(c2ccsc2)NC(=O)N1C (centres unmarked)"
  reported_result: "-37.7%"
- molecule: "CCCOc1cccc(C2C(C(=O)c3ccc(C)o3)=C(O)C(=O)N2c2nc(C)c(C(C)=O)s2)c1 (centres unmarked)"
  reported_result: "9.66%"
- molecule: "O=C(Cc1ccccc1)N[C@@H](Cc1ccccc1)C(=O)O"
  reported_result: "7.29%"
- molecule: "Cc1[nH]c2ccccc2c1/C=N/n1cnnc1"
  reported_result: "10.2%"

Request: Given the molecule CN(c1ccccc1)S(=O)(=O)c1ccc(C(=O)NCCc2ccc(F)cc2)cc1 , what is its reported hERG current change (%, negative = inhibition) at 10uM?
Result: -21.1%

Request: Given the molecule CCOc1cc(/C=N/NC(=O)NN(C)c2ncc(C(F)(F)F)cc2Cl)ccc1O , what is its reported hERG current change (%, negative = inhibition) at 10uM?
Result: -54.3%

Request: Given the molecule CCCCc1ccc(-c2nc(N)n[nH]2)cc1 , what is its reported hERG current change (%, negative = inhibition) at 10uM?
Result: 6.27%

###

Target: human ether-à-go-go-related gene (hERG) potassium channel (human, UniProt Q12809);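 also: peak tail current of the secondary pulse compared with the same well before compound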
Assay: primary screen, population patch clamp on CHO cells stably expressing hERG; higher = less effect of the substance
The whole screen tested about 310,000 compounds, of which about 14,000 (4.5%) showed an effect of 50% or more. Effects have a minus sign here. The full list was thinned out, with strong results kept by preference.
Measured hERG current change (%, negative = inhibition) at 10uM values are reported for all entries that follow.
The reply should contain only the number, in %.

These recorded examples may help you get a feel for the data.
- compound: "CCOC(=O)C1(Cc2cccc(Cl)c2)CCCN(C(=O)c2cnn(CC)c2)C1 (stereo not shown)"
  reported_result: -6.39
- compound: "CC(Sc1nnc2ccccn12)C(=O)Nc1ccc(Cl)cn1 (stereo not shown)"
  reported_result: -1.5
- compound: "O=C(Nc1ccccc1Sc1ccccc1)c1ccc(F)cc1"
  reported_result: -7.65
- compound: "O=C(CNCc1ccc(Cl)cc1)NCc1ccco1.O=C(O)C(=O)O"
  reported_result: -17.3
- compound: "CCOC(=O)C1(CCCc2ccccc2)CCN(C(=O)Cc2nonc2C)CC1"
  reported_result: -51.3
- compound: "CCOC(=O)C1(CCCc2ccccc2)CCN(C(=O)c2cc(C)nn2CC)CC1"
  reported_result: -57.8

Request: Given the compound Nc1nc(NCCCN2CCOCC2)nc(Nc2ccccc2)c1[N+](=O)[O-] , what is its reported hERG current change (%, negative = inhibition) at 10uM?
Result: -36.5

Request: Given the compound CCOC(=O)C1(CCCc2ccccc2)CCN(C(=O)c2cnc(C)cn2)CC1 , what is its reported hERG current change (%, negative = inhibition) at 10uM?
Result: -39.8

Request: Given the compound CCc1ccc(/C=N/NC(=O)C(=O)NCCCN2CCOCC2)cc1 , what is its reported hERG current change (%, negative = inhibition) at 10uM?
Result: -23.6

Request: Given the compound O=C(CSC1CC(=O)N(c2ccc(C(=O)O)cc2)C1=O)Nc1ccc2ccccc2c1 (stereo not shown) , what is its reported hERG current change (%, negative = inhibition) at 10uM?
Result: 15.8

###

Target: human ether-à-go-go-related gene (hERG) potassium channel (human, UniProt Q12809);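 also: peak tail current of the secondary pulse compared with the same well before compound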
Test: primary screen, population patch clamp on CHO cells stably expressing hERG; higher = less effect of the substance
The whole screen tested about 310,000 compounds, of which about 14,000 (4.5%) showed an effect of 50% or more. Effects have a minus sign here. Many of the other results were omitted from the sample, so strong results are more common in it than they were.
quantity_name: hERG current change (%, negative = inhibition) at 10uM
Please answer using a numeric value trailed by its unit.

- compound: "Cc1cc(C)c2c(CCl)cc(=O)oc2c1"
  reported_result: "-1.06%"
- compound: "S=C(Nc1ccc(Cl)cc1)NC1CC2CCCC(C1)N2C1CCCC1 (stereo not shown)"
  reported_result: "-55.5%"

Then there is this compound:
Request: Given the compound C/C(=N\NC(=O)CSc1nc(C)cc(C)n1)c1ccc2c(c1)OCCO2 , what is its reported hERG current change (%, negative = inhibition) at 10uM?
Result: 18.3%
